# testedOn: eIF-2-alpha kinase GCN2 (Homo sapiens)
# assayText: Inhibition of GCN2 (unknown origin)
recordedMetric: log10 IC50 (log10 of the value in nM)

• FC(F)(F)c1nn(-c2ccc3ncccc3c2)c2nc(Nc3cnn(C4CCNCC4)c3)ncc12 = 2.23
• Cc1nn(-c2ccc3ncccc3c2)c2nc(Nc3cnn(C4CCNCC4)c3)ncc12 = 1.04
• COCCNC(=O)[C@H]1CC[C@H](Nc2ncc3c(Br)nn(-c4ccc5ncccc5c4)c3n2)CC1 = 2.20
• CNC(=O)[C@]1(C)CC[C@@H](Nc2ncc3c(Br)nn(-c4ccc(-c5nnc(C)s5)c(CCC#N)c4)c3n2)C1 = 1.00
• CNC(=O)[C@]1(C)CC[C@@H](Nc2ncc3c(Br)nn(-c4ccc(-c5nnc(C)s5)c(CCN(C)C)c4)c3n2)C1 = 1.46
• COCCNC(=O)[C@H]1CC[C@H](Nc2ncc3c(Br)nn(-c4ccc5ncccc5c4)c3n2)C1 = 2.16
• CNC(=O)[C@]1(C)CC[C@@H](Nc2ncc3c(Br)nn(-c4ccc(-c5nnc(C)s5)c(CCO)c4)c3n2)C1 = 1.20
• CNC(=O)[C@]1(C)CC[C@@H](Nc2ncc3c(Br)nn(-c4ccc(-c5cnc(C)s5)cc4)c3n2)C1 = 1.43
• CNC(=O)[C@]1(C)CC[C@@H](Nc2ncc3c(Br)nn(-c4ccc(-c5nnc(C)s5)c(S(C)(=O)=O)c4)c3n2)C1 = 1.79
• COCCNC(=O)[C@@H]1CC[C@@H](Nc2ncc3c(Br)nn(-c4ccc5ncccc5c4)c3n2)C1 = 0.70
• CNC(=O)[C@]1(C)CC[C@@H](Nc2ncc3c(Br)nn(-c4ccc(-c5nnc(C)s5)c(CO)c4)c3n2)C1 = 1.96
• CS(=O)(=O)N1CC[C@@H](Nc2ncc3c(Br)nn(-c4ccc5ncccc5c4)c3n2)C1 = 1.95
• CCn1cc(Nc2ncc3c(C)nn(-c4ccc(C#N)cc4)c3n2)cn1 = 1.75
• Brc1nn(-c2ccc3ncccc3c2)c2nc(N[C@@H]3CC[C@@H](c4ncc[nH]4)C3)ncc12 (relative stereo) = 1.32
• Clc1nn(-c2ccc3ncccc3c2)c2nc(Nc3cnn(C4CCNCC4)c3)ncc12 = 0.70
• CNC(=O)[C@]1(C)CC[C@@H](Nc2ncc3c(Br)nn(-c4ccc(-c5nnc(C)s5)c(C#N)c4)c3n2)C1 = 0.90
• CCn1cc(Nc2ncc3cnn(-c4ccc(OC)cc4)c3n2)cn1 = 2.12
• CCn1cc(Nc2ncc3c(C)nn(-c4ccc(OC)cc4)c3n2)cn1 = 1.91
• CNC(=O)[C@]1(C)CC[C@@H](Nc2ncc3c(Br)nn(-c4ccc(-c5nnc(C)s5)c(CNS(C)(=O)=O)c4)c3n2)C1 = 2.04
• COCCNC(=O)[C@H]1C[C@H](Nc2ncc3c(Br)nn(-c4ccc5ncccc5c4)c3n2)C1 = 1.60
• CNC(=O)[C@]1(C)CC[C@@H](Nc2ncc3c(Br)nn(-c4ccc5ncccc5c4)c3n2)C1 = 1.23
• COCCNC(=O)[C@@H]1CC[C@H](Nc2ncc3c(Br)nn(-c4ccc5ncccc5c4)c3n2)C1 = 2.97
• CNS(=O)(=O)[C@@H]1CC[C@@H](Nc2ncc3c(Br)nn(-c4ccc5ncccc5c4)c3n2)C1 = 1.63
• COCCS(=O)(=O)N[C@@H]1CC[C@@H](Nc2ncc3c(Br)nn(-c4ccc5ncccc5c4)c3n2)C1 (relative stereo) = 1.74

* * *

Each entry below carries its reported pIC50.
# testedOn: eIF-2-alpha kinase GCN2 (Homo sapiens, UniProt Q9P2K8)
# Sequence (Q9P2K8 whole entry): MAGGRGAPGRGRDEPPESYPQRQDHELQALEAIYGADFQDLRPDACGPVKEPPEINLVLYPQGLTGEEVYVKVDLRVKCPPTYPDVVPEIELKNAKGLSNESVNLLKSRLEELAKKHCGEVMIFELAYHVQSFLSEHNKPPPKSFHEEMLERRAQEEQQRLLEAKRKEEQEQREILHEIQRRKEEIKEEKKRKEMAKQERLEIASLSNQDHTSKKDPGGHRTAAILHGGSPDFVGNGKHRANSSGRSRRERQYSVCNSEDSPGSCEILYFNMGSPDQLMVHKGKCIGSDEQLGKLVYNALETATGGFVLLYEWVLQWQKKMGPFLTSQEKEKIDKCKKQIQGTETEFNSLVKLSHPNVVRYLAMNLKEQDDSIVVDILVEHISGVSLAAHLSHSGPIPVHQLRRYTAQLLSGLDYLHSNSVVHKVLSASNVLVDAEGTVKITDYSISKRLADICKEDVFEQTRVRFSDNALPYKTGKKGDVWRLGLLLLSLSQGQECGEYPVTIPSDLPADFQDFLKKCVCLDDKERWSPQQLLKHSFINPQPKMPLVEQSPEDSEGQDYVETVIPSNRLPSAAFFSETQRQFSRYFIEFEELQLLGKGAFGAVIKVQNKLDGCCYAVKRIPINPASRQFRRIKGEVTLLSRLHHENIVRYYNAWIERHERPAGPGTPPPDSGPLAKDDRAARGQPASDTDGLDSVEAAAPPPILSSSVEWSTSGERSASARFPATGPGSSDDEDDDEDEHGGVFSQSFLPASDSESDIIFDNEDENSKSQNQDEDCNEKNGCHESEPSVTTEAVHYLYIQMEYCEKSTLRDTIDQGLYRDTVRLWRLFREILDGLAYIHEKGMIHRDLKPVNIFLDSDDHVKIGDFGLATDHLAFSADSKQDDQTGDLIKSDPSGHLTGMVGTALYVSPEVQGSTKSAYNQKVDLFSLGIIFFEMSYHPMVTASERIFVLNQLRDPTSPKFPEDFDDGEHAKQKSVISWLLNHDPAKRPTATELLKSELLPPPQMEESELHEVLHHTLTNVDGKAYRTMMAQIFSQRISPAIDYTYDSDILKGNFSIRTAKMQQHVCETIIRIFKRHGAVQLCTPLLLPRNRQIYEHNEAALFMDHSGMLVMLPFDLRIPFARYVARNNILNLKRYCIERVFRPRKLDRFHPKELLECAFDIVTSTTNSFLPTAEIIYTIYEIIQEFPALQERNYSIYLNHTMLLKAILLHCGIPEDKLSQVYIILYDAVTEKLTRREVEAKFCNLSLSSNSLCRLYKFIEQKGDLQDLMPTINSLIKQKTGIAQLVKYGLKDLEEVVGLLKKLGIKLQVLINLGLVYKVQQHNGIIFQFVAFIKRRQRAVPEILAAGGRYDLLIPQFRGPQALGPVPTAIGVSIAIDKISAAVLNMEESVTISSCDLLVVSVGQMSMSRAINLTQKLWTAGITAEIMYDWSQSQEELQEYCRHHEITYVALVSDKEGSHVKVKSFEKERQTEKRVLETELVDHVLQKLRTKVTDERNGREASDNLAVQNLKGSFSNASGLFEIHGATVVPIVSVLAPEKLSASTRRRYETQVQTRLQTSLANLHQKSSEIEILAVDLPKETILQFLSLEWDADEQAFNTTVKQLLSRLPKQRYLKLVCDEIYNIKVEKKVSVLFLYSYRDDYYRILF
# assayText: Inhibition of GCN2 in human SK-OV-3 cells assessed as reduction in phosphorylation of eIF2alpha by cellular assay
# Format: cell-based
pIC50: −log10 of the molar value.
recordedMetric: pIC50

* CS(=O)(=O)N1CC[C@@H](Nc2ncc3c(Br)nn(-c4ccc5ncccc5c4)c3n2)C1 | 6.42
* CNC(=O)[C@@H]1CC[C@@H](Nc2ncc3c(Br)nn(-c4ccc5ncccc5c4)c3n2)C1 | 7.60
* COCCNC(=O)[C@H]1CC[C@H](Nc2ncc3c(Br)nn(-c4ccc5ncccc5c4)c3n2)C1 | 6.74
* CNC(=O)[C@]1(C)CC[C@@H](Nc2ncc3c(Br)nn(-c4ccc5ncccc5c4)c3n2)C1 | 7.68
* COCCNC(=O)[C@H]1CC[C@@H](Nc2ncc3c(Br)nn(-c4ccc5ncccc5c4)c3n2)CC1 | 6.12
* CNC(=O)[C@]1(C)CC[C@@H](Nc2ncc3c(Br)nn(-c4ccc(-c5nnc(C)s5)c(CCC#N)c4)c3n2)C1 | 7.54
* CNC(=O)[C@]1(C)CC[C@@H](Nc2ncc3c(Br)nn(-c4ccc(-c5nnc(C)o5)cc4)c3n2)C1 | 7.80
* CNC(=O)[C@]1(C)CC[C@@H](Nc2ncc3c(Br)nn(-c4ccc(-c5nnc(C)s5)cc4)c3n2)C1 | 7.80
* COCCC(=O)N[C@@H]1CC[C@@H](Nc2ncc3c(Br)nn(-c4ccc5ncccc5c4)c3n2)C1 | 6.80
* Brc1nn(-c2ccc3ncccc3c2)c2nc(Nc3cnn(C4CCNCC4)c3)ncc12 | 6.21
* CNC(=O)[C@]1(C)CC[C@@H](Nc2ncc3c(Br)nn(-c4ccc(-c5nnc(C)s5)c(CCS(C)(=O)=O)c4)c3n2)C1 | 8.05

* * *

# testedOn: eIF-2-alpha kinase GCN2 (Homo sapiens, UniProt Q9P2K8)
# assayText: Inhibition of GCN2 (unknown origin)
compounds and their reported IC50
recordedMetric: IC50

- CCn1cc(Nc2ncc3cccc(Nc4ccc(OC)cc4)c3n2)cn1: > 1 µM
- COCCNC(=O)CNc1ncc2c(Br)nn(-c3ccc4ncccc4c3)c2n1: > 1 µM
- COCCNC(=O)CCNc1ncc2c(Br)nn(-c3ccc4ncccc4c3)c2n1: > 1 µM
- CCn1cc(Nc2ccn3ncc(-c4ccc(OC)cc4)c3n2)cn1: > 1 µM

Data origin, for the record: ChEMBL document CHEMBL5108048
